System: Anopheles gambiae (homocygus kdr)
Test: Anopheles test (ANPHGB surface treatment)
Assay type: in vivo
Settings: active compound concentration 1.6 g/ha
metric_name: Kill rate in % after 24 hours (%)
Could you give me the number in %? Just the number is fine.

Recorded Kill rate in % after 24 hours (compound "Cc1ccc(N=C2C(=CSc3ccc(F)cc3)CCc3cc(F)ccc32)cc1" ): 80

Recorded Kill rate in % after 24 hours (compound Cc1ccc(N=C2C(=CSc3ccc(F)cc3)C(C)c3ccccc32)cc1 (stereo not shown) ): 100

Recorded Kill rate in % after 24 hours (compound "Cc1ccc(N=C2C(=CSc3ccc(F)cc3)CCc3ccccc32)cc1" ): 100

Recorded Kill rate in % after 24 hours (compound "Cc1ccc(N=C2C(=CSc3ccc(F)cc3)CSc3ccccc32)cc1" ): 100

###

Test system: caterpillars of the army worm (Spodoptera frugiperda)
Assay: Spodoptera frugiperda test (SPODFR spray treatment)
Assay type: in vivo
Settings: 500 g/ha, spray, after 7 days
metric_name: activity (caterpillars killed) (%)
Could you give me the number in %? Just the number is fine.

Summary: Cc1ccc(N=C2C(=CSc3ccc(F)cc3)COc3cc(F)ccc32)cc1 [Example 1-58] , caterpillars of the army worm (Spodoptera frugiperda), activity (caterpillars killed) = 100

Summary: Cc1ccc(N=C2C(=CSc3ccc(F)cc3)C(C)c3cc(F)ccc32)cc1C (mixture of isomers) [Example 1-63] , caterpillars of the army worm (Spodoptera frugiperda), activity (caterpillars killed) = 100

Summary: Cc1ccc(N=C2C(=CSc3ccc(F)cc3)CC(C)c3ccccc32)cc1 (centres unmarked) [Example 1-14] , caterpillars of the army worm (Spodoptera frugiperda), activity (caterpillars killed) = 100

Summary: Cc1ccc(N=C2C=CC(C)(C)CC2=CSc2ccc(F)cc2)cc1 (mixture of isomers) [Example 1-44] , caterpillars of the army worm (Spodoptera frugiperda), activity (caterpillars killed) = 83

Summary: CCc1ccc2c(c1)CCC(=CSc1ccc(F)cc1)C2=Nc1ccc(C)cc1 [Example 1-84] , caterpillars of the army worm (Spodoptera frugiperda), activity (caterpillars killed) = 100

Summary: Cc1ccc(N=C2C(=CSc3ccc(F)cc3)CCc3c(F)cccc32)cc1 (mixture of isomers) [Example 1-34] , caterpillars of the army worm (Spodoptera frugiperda), activity (caterpillars killed) = 100

Summary: Cc1ccc2c(c1)C(C)C(=CSc1ccc(F)cc1)C2=Nc1ccc(C)c(C)c1 (mixture of isomers) [Example 1-71] , caterpillars of the army worm (Spodoptera frugiperda), activity (caterpillars killed) = 100

Summary: Cc1ccc(N=C2c3cc(F)ccc3CCC2C(Sc2ccc(F)cc2)Sc2ccc(F)cc2)cc1 (centres unmarked) [Example 2-8] , caterpillars of the army worm (Spodoptera frugiperda), activity (caterpillars killed) = 100

Summary: Cc1ccc(N=C2C(=CSc3ccc(F)cc3)CCc3cc(F)cc(F)c32)cc1 (mixture of isomers) [Example 1-33] , caterpillars of the army worm (Spodoptera frugiperda), activity (caterpillars killed) = 100

Summary: Cc1ccc(N=C2C(=CSc3ccc(F)cc3)C(C)c3cc(C)ccc32)cc1 (mixture of isomers) [Example 1-51] , caterpillars of the army worm (Spodoptera frugiperda), activity (caterpillars killed) = 100

Summary: Cc1ccc(N=C2C(=CSc3ccc(F)cc3)CCc3ccccc32)c(C)c1 [Example 1-43] , caterpillars of the army worm (Spodoptera frugiperda), activity (caterpillars killed) = 100

Summary: Cc1ccc(N=C2C(=CSc3ccc(F)cc3)COc3cc(C(C)(C)C)ccc32)cc1 [Example 1-75] , caterpillars of the army worm (Spodoptera frugiperda), activity (caterpillars killed) = 100

Summary: Cc1ccc(N=C2C(=CSc3ccccc3)COc3ccccc32)cc1 [Example 1-7] , caterpillars of the army worm (Spodoptera frugiperda), activity (caterpillars killed) = 100

Summary: c1ccc(N=C2c3ccccc3C(c3ccccc3)C2C(Sc2ccccc2)Sc2ccccc2)cc1 (mixture of isomers) [Example 2-10] , caterpillars of the army worm (Spodoptera frugiperda), activity (caterpillars killed) = 100

Summary: CC1C(=CSc2ccccc2)C(=Nc2ccc(F)cc2)c2ccccc21 (mixture of isomers) [Example 1-6] , caterpillars of the army worm (Spodoptera frugiperda), activity (caterpillars killed) = 100

Summary: Cc1ccc(N=C2C(=CSc3ccc(F)cc3)C(C)c3cccc(F)c32)cc1 (mixture of isomers) [Example 1-27] , caterpillars of the army worm (Spodoptera frugiperda), activity (caterpillars killed) = 100

Summary: Cc1ccc(N=C2C(=CSc3cccc(Cl)c3)CCc3ccccc32)cc1 [Example 1-62] , caterpillars of the army worm (Spodoptera frugiperda), activity (caterpillars killed) = 100

Summary: Cc1ccc(N=C2C(=CSc3ccc(F)cc3)CCc3ccccc32)cc1C#N [Example 1-68] , caterpillars of the army worm (Spodoptera frugiperda), activity (caterpillars killed) = 100

Summary: Cc1ccc(N=C2C(=CSc3cc(F)cc(F)c3)CCc3ccccc32)cc1 [Example 1-81] , caterpillars of the army worm (Spodoptera frugiperda), activity (caterpillars killed) = 100

Summary: Cc1ccc(N=C2C(Br)=CC(C)(C)CC2=CSc2ccc(F)cc2)cc1 [Example 1-49] , caterpillars of the army worm (Spodoptera frugiperda), activity (caterpillars killed) = 100

Summary: Cc1ccc(N=C2C(=CSc3ccc(F)cc3)C(C)Oc3ccc(F)cc32)cc1 (centres unmarked) [Example 1-25] , caterpillars of the army worm (Spodoptera frugiperda), activity (caterpillars killed) = 100

Summary: Cc1ccc(N=C2C(=CSc3ccccc3Cl)CCc3ccccc32)cc1 [Example 1-69] , caterpillars of the army worm (Spodoptera frugiperda), activity (caterpillars killed) = 100

Summary: Cc1ccc(N=C2C(=CSc3ccc(F)c(F)c3)CCc3ccccc32)cc1 [Example 1-74] , caterpillars of the army worm (Spodoptera frugiperda), activity (caterpillars killed) = 100
